Attribute: IC50
# System: REL-A (p65) nuclear translocation, HeLa cells
# PROTOCOL: REL-A (p65) nuclear translocation assay in HeLa cells (classical NF-kB signaling, TNF-α stimulated)
# Format: cell-based
# MEASUREMENT_CONDITIONS: Homo sapiens, 0.5 h; HeLa cells, 10 ng/mL TNF-α for 30 minutes; read-out: REL-A HeLa Transloc Assay (IC50)

Here is how some compounds turned out for IC50.
CN1CC[C@@](O)(C#Cc2cccc(-n3nc(C(N)=O)c4c3OCCC4)c2)C1=O [Compound 12]; 20 µM
CN1CC[C@@](O)(C#Cc2cccc(-n3nc(C(N)=O)c4cc(OCCN5CCOCC5)ccc43)c2)C1=O [Compound 162]; 2 µM
CN1CC[C@@](O)(C#Cc2ccc(F)c(-n3nc(C(N)=O)c4c3CCC4)c2)C1=O [Compound 145]; 20 µM
CN1CC[C@@](O)(C#Cc2cccc(-n3nc(C(N)=O)c4cc(-c5cnn(CCO)c5)ccc43)c2)C1=O [Compound 113]; 20 µM
Cc1c(Cl)c(C(N)=O)nn1-c1cc(C#C[C@]2(O)CCN(C)C2=O)ccn1 [Compound 78]; 20 µM

Q. Given the entry CN1CC[C@@](O)(C#Cc2cccc(-c3csc(C(N)=O)n3)c2)C1=O [Compound 89] , what IC50 was observed with REL-A (p65) nuclear translocation, HeLa cells?
A. > 20 µM

Q. Continue with CCOc1cc2c(cn1)c(C(N)=O)nn2-c1cccc(C#C[C@]2(O)CCN(C)C2=O)c1 [Compound 136]
A. 20 µM

Q. Lookup CN1CC[C@@](O)(C#Cc2cccc(-n3nc(C(N)=O)c4cc(-c5ccn(C)n5)ccc43)c2)C1=O [Compound 101]
A. 6.32 µM

Q. Now try CN1CC[C@@](O)(C#Cc2cccc(-c3nc(C(N)=O)n4ccc(OC5CCC5)cc34)c2)C1=O [Compound 96] .
A. 20 µM

Q. And what about the compound CN1CC[C@@](O)(C#Cc2ccnc(-n3nc(C(N)=O)c4c3CCC4)c2)C1=O [Compound 56] ?
A. 20 µM

Q. Same read-out for CN1CC[C@@](O)(C#Cc2cccc(-c3nc(C(N)=O)n4cccnc34)c2)C1=O [Compound 85] ?
A. 19.2 µM

Q. Now the same for CN1CC[C@@](O)(C#Cc2ccc(F)c(-c3nc(C(N)=O)n4cc(Cl)ccc34)c2)C1=O [Compound 186]
A. > 2 µM
